- test-target: human CTLA-4 (human) (UniProt P16410)
- Sequence (P16410 36-223): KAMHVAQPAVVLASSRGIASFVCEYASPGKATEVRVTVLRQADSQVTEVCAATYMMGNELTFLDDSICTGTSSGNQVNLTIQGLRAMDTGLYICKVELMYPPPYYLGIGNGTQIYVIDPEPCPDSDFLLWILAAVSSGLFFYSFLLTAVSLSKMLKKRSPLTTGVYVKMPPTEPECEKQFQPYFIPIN
- assay-text: flow cytometry, CHO cells stably expressing CTLA4
As shown below, each of these binders has a reported Fold change to WT CD80 value.
Express the result in fold but write the number alone.

Solved entries:
variant CD80 IgV-Fc H18Y/E35D/A71G/D90G (Fc fusion) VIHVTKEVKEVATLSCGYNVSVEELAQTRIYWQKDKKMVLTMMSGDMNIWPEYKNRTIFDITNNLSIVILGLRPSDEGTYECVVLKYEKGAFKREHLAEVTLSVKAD = 19
CD80 IgV-Fc S15T/H18Y/E35D/M47V/T62A/N64S/A71G/L85Q/D90N (Fc fusion) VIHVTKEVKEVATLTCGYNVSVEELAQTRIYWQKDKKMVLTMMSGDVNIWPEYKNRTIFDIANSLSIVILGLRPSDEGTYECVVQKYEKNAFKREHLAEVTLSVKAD = 10.7

--- query ---
Fold change to WT CD80 recorded for this binder, variant CD80 IgV-Fc A26E/E35D/M47L/D90G (Fc fusion) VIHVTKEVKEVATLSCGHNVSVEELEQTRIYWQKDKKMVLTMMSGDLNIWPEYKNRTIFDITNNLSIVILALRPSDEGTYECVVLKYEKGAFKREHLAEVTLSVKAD , is 13.4
